For each entry below, report its pEC50 value.
- ASSAY_SUMMARY: Agonist activity as induced proliferation in Ba/F3-hTpoR murine lymphocyte expressing human TPOR
A value of pEC50 is the negative decimal logarithm of a concentration given in moles per litre.

Entry under review: CC(C)(C)c1ccc(-c2ccc(-c3nc4ccc(C=C5SC(=S)NC5=O)cc4[nH]3)o2)cc1 . Reported pEC50?
6.14

Entry under review: CC(C)(C)c1ccc(-c2cccc(-c3nc4ccc(C=C5SC(=S)NC5=O)cc4[nH]3)c2)cc1 . Reported pEC50?
6.05

Entry under review: Cc1ccc(-c2cccc(-c3nc4ccc(C=C5SC(S)=NC5=O)cc4[nH]3)n2)cc1C . Reported pEC50?
5.80

Entry under review: CC(C)(C)c1ccc(-c2cccc(-c3nc4ccc(C=C5SC(S)=NC5=O)cc4[nH]3)n2)cc1 . Reported pEC50?
5.70

Entry under review: CC(C)(C)c1ccc(-c2cccc(-c3nc4ccc(CC(C(=O)O)C(=O)O)cc4[nH]3)n2)cc1 . Reported pEC50?
5.00

Entry under review: CC(=Cc1ccc2nc(-c3cccc(-c4ccc(C(C)(C)C)cc4)n3)[nH]c2c1)C(=O)O . Reported pEC50?
5.35

Entry under review: Cc1ccc(-c2csc(-c3nc4ccc(C=C5SC(S)=NC5=O)cc4[nH]3)c2)cc1C . Reported pEC50?
6.11

Entry under review: Cc1ccc(-c2ccc(-c3nc4ccc(C=C5SC(S)=NC5=O)cc4[nH]3)s2)cc1C . Reported pEC50?
5.76
